enrichment ratio: recorded values
B1: PhoQ; a variant is named by its letters at X, in order, P23837 (parent)
chain: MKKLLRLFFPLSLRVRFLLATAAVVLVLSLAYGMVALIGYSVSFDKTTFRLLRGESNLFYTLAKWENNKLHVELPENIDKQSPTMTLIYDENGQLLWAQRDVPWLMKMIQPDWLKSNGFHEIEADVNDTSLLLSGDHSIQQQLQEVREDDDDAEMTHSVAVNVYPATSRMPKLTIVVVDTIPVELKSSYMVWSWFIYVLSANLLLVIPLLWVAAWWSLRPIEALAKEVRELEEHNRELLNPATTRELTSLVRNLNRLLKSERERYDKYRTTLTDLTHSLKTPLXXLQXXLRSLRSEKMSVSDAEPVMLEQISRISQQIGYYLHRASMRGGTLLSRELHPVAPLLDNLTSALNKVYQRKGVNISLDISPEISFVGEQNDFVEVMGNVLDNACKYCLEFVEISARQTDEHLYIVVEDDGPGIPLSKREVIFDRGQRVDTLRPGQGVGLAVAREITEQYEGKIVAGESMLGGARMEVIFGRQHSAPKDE

Variants of: B1
experimental-details: enrichment ratio after two sorts for PhoP signalling (ratio (wild type AVST 3.29)); higher = more functional
experimental-conditions: with PhoP (E. coli)
The full ranking holds about 140,000 sequences; the median of “enrichment ratio after two sorts for PhoP signalling” is about 0, and the highest 2% start at about 11. The full list was thinned out, with the highest values kept by preference.
outcome-measure: enrichment ratio

[[record]]
mutation_string = "VMWK"
sign_qualifier = "≤"
meas_value = 0.25

[[record]]
mutation_string = "QYNE"
sign_qualifier = "≤"
meas_value = 0.25

[[record]]
mutation_string = "QQNM"
sign_qualifier = "="
meas_value = 16.3

[[record]]
mutation_string = "PDCH"
sign_qualifier = "≤"
meas_value = 0.25

[[record]]
mutation_string = "TTWN"
sign_qualifier = "="
meas_value = 15.1

[[record]]
mutation_string = "TTAF"
sign_qualifier = "="
meas_value = 14

[[record]]
mutation_string = "SHDF"
sign_qualifier = "≤"
meas_value = 0.25

[[record]]
mutation_string = "NRLL"
sign_qualifier = "≤"
meas_value = 0.25

[[record]]
mutation_string = "MSLL"
sign_qualifier = "="
meas_value = 13.3

[[record]]
mutation_string = "FFWF"
sign_qualifier = "≤"
meas_value = 0.25

[[record]]
mutation_string = "YMQV"
sign_qualifier = "≤"
meas_value = 0.25

[[record]]
mutation_string = "FSLL"
sign_qualifier = "="
meas_value = 13.5

[[record]]
mutation_string = "YTQF"
sign_qualifier = "≤"
meas_value = 0.25

[[record]]
mutation_string = "YSHD"
sign_qualifier = "≤"
meas_value = 0.25

[[record]]
mutation_string = "TTQF"
sign_qualifier = "="
meas_value = 22.7

[[record]]
mutation_string = "QSWN"
sign_qualifier = "="
meas_value = 21.4

[[record]]
mutation_string = "KSLL"
sign_qualifier = "≤"
meas_value = 0.25

[[record]]
mutation_string = "ITTL"
sign_qualifier = "="
meas_value = 0.464

[[record]]
mutation_string = "SCGR"
sign_qualifier = "≤"
meas_value = 0.25

[[record]]
mutation_string = "QGWN"
sign_qualifier = "="
meas_value = 16.6

[[record]]
mutation_string = "SETL"
sign_qualifier = "="
meas_value = 14.8

[[record]]
mutation_string = "TSLL"
sign_qualifier = "="
meas_value = 14

[[record]]
mutation_string = "STWN"
sign_qualifier = "≤"
meas_value = 0.25

[[record]]
mutation_string = "RYCQ"
sign_qualifier = "≤"
meas_value = 0.25

[[record]]
mutation_string = "TKWF"
sign_qualifier = "="
meas_value = 13.4

[[record]]
mutation_string = "AGVG"
sign_qualifier = "="
meas_value = 1.3

[[record]]
mutation_string = "NHDF"
sign_qualifier = "≤"
meas_value = 0.25

[[record]]
mutation_string = "YTWN"
sign_qualifier = "≤"
meas_value = 0.25

[[record]]
mutation_string = "QPLL"
sign_qualifier = "≤"
meas_value = 0.25

[[record]]
mutation_string = "VLTL"
sign_qualifier = "="
meas_value = 3.19

[[record]]
mutation_string = "QLWN"
sign_qualifier = "≤"
meas_value = 0.25

[[record]]
mutation_string = "THDF"
sign_qualifier = "="
meas_value = 11.6

[[record]]
mutation_string = "QGWF"
sign_qualifier = "="
meas_value = 18.8

[[record]]
mutation_string = "MNPG"
sign_qualifier = "≤"
meas_value = 0.25

[[record]]
mutation_string = "FQWF"
sign_qualifier = "≤"
meas_value = 0.25

[[record]]
mutation_string = "QKWF"
sign_qualifier = "="
meas_value = 12.7

[[record]]
mutation_string = "PAKQ"
sign_qualifier = "≤"
meas_value = 0.25

[[record]]
mutation_string = "TVPS"
sign_qualifier = "≤"
meas_value = 0.25

[[record]]
mutation_string = "QRWF"
sign_qualifier = "≤"
meas_value = 0.25

[[record]]
mutation_string = "YTTL"
sign_qualifier = "="
meas_value = 3.18

[[record]]
mutation_string = "NETL"
sign_qualifier = "≤"
meas_value = 0.25

[[record]]
mutation_string = "WDLV"
sign_qualifier = "≤"
meas_value = 0.25

[[record]]
mutation_string = "KSWF"
sign_qualifier = "≤"
meas_value = 0.25

[[record]]
mutation_string = "FLTL"
sign_qualifier = "="
meas_value = 0.273

[[record]]
mutation_string = "GKRI"
sign_qualifier = "≤"
meas_value = 0.25

[[record]]
mutation_string = "QPWF"
sign_qualifier = "≤"
meas_value = 0.25

